B1: ZNF649 (parent)
chain: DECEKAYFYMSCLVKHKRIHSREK

variants of: B1; test: protein stability index of a GFP-peptide fusion (GPS, HEK-293T) (PSI 1-6); higher = more stable; conditions: c terminus: a fixed tail appended;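 also: lentivirally expressed fusions sorted by FACS into six bins by GFP to DsRed ratio, PSI derived from sequencing read proportions per bin multiplied by bin number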
Assign class by protein stability index: not lower than 3 means 1.0; lower than 3 means 0.0.

Use these answered entries as a reference point.
INSERT INTO assay_data (mutant_code, label) VALUES
  ('R22G', 0.0),
  ('R22P', 0.0),
  ('E4G', 0.0),
  ('C12G', 1.0),
  ('V14Y', 0.0),
  ('K15G', 0.0),
  ('M10L', 0.0),
  ('Y9M', 0.0),
  ('E23W', 0.0),
  ('C12K', 0.0);

// query Kindly determine if protein stability index recorded for E2K is above or exactly 3.
// result 0.0

// query Kindly determine if protein stability index recorded for F8R is above or exactly 3.
// result 0.0

// query Kindly determine if protein stability index recorded for V14S is above or exactly 3.
// result 1.0

// query Kindly determine if protein stability index recorded for S21L is above or exactly 3.
// result 0.0

// query Kindly determine if protein stability index recorded for S21K is above or exactly 3.
// result 0.0

// query Kindly determine if protein stability index recorded for H16D is above or exactly 3.
// result 1.0

// query Kindly determine if protein stability index recorded for L13Y is above or exactly 3.
// result 0.0

// query Kindly determine if protein stability index recorded for K15R is above or exactly 3.
// result 0.0

// query Kindly determine if protein stability index recorded for E4Q is above or exactly 3.
// result 0.0

// query Kindly determine if protein stability index recorded for F8G is above or exactly 3.
// result 1.0

// query Kindly determine if protein stability index recorded for K24H is above or exactly 3.
// result 0.0

// query Kindly determine if protein stability index recorded for S21E is above or exactly 3.
// result 0.0

// query Kindly determine if protein stability index recorded for S11M is above or exactly 3.
// result 0.0
